Format: physicochemical
Design: key: 1 = fibrils present; 0 non-fibrillar structures
Conditions: FigS12 panel A; fibril category by TEM
Method: For ATR FT–IR spectroscopy measurements, 200 µL of the respective 1 mg/mL PNF solution was lyophilized and the resulting powder used for measurement. All spectra were recorded on a Bruker Tensor 27 spectrometer with a diamond crystal as ATR element (PIKE MiracleTM, spectral resolution 2 cm^-1). Every sample was measured with 64 scans. Data were analyzed with OriginLab software and calculation of β–sheet content was conducted according to a previous report. TEM. […]
Readout: TEM 2cat
One number for each entry.

Here are 3 substances together with their reported answers.
- KIKQIIN: 0
- RPRGLLLGNLR: 0
- SISISRRI: 0

Dear colleague, could you please provide TEM 2cat for the substances listed below?
1. KIKIQIRGD
2. HGEHGE
3. MDQMDQMDQMDQMDQ
4. RGDKIRGDKI
5. KIKIQINMWQRGD

Response line:
[1, 0, 0, 0, 0]

Dear colleague, could you please provide TEM 2cat for the substances listed below?
1. KAKAQANM
2. KLKLKLQL
3. KIKIQI
4. CETMYDKILKNLSRSR
5. KVKVQVVV
6. EFEFQF

Response line:
0
1
0
0
1
0
